Listed next: entries and their corresponding IC50.
# Target desc: M342A mutant AhR (Mus musculus, UniProt P30561, M342A)
# Assay: [3H]TCDD competitive ligand binding, M342A mutant AhR
# Condition label: Table S6; AhR mutant M342A
# number only, unit nM dropped from output

What measured IC50 goes with c1ccc2c(c1)ccc1cc3c(ccc4ccccc43)cc12 ? 6.72

What measured IC50 goes with Clc1ccc(-c2cc(Cl)c(Cl)c(Cl)c2)cc1Cl ? 9.33

---

# Target desc: M342A mutant AhR (Mus musculus, UniProt P30561, M342A)
# Construct: made in house; host or cells: in vitro, Promega TNT Quick rabbit reticulocyte lysate
# Assay: [3H]TCDD competitive ligand binding, M342A mutant AhR
# Condition label: M342A substitution; in words
Experimental readout: change of relative binding affinity versus wild-type AhR

Compound	Target desc	Val
Clc1ccc(-c2cc(Cl)c(Cl)c(Cl)c2)cc1Cl [PCB126, 3,3′4,4′5-pentachlorobiphenyl]	M342A mutant AhR (Mus musculus, UniProt P30561, M342A)	reduced
Cc1ccc2cc3c(ccc4ccccc43)c3c2c1CC3 [3MC, 3-methylcholanthrene]	M342A mutant AhR (Mus musculus, UniProt P30561, M342A)	reduced
c1ccc2c(c1)ccc1cc3c(ccc4ccccc43)cc12 [DBA, dibenz(a,h)anthracene]	M342A mutant AhR (Mus musculus, UniProt P30561, M342A)	not affected
O=c1cc(-c2ccccc2)oc2ccc3ccccc3c12 [BNF]	M342A mutant AhR (Mus musculus, UniProt P30561, M342A)	not affected

---

# Target desc: C327A mutant AhR (Mus musculus, UniProt P30561, C327A)
# Construct: made in house; host or cells: in vitro, Promega TNT Quick rabbit reticulocyte lysate
# Sequence (P30561 10-848 C327A): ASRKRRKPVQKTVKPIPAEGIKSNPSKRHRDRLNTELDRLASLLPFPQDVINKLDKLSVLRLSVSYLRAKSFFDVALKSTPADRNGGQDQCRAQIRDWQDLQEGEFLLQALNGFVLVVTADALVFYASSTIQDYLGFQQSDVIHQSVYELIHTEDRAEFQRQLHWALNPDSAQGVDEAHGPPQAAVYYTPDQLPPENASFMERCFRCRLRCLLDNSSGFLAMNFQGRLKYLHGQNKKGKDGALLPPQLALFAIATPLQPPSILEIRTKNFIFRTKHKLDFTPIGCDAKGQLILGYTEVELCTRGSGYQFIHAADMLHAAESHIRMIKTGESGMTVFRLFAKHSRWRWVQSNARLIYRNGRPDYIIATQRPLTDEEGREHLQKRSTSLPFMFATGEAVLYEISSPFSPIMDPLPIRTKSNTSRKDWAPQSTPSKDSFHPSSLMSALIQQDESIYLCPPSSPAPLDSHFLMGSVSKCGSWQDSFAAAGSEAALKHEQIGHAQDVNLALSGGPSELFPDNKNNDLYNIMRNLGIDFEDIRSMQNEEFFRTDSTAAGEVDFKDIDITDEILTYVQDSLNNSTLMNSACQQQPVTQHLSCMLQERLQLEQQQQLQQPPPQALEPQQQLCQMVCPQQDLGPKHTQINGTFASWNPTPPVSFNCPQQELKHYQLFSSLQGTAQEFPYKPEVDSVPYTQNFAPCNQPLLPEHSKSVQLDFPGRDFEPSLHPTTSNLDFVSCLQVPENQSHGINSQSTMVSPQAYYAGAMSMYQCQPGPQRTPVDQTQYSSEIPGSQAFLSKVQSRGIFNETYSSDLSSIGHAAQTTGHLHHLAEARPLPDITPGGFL
# Assay: [3H]TCDD competitive ligand binding, C327A mutant AhR
# Condition label: Table S6; AhR mutant C327A; read-out: IC50
Experimental readout: IC50 (nM)
# number only, unit nM dropped from output

Before answering, review these 2 worked examples.
Molecule	Experimental readout	Val
O=c1cc(-c2ccccc2)oc2ccc3ccccc3c12 [BNF]	IC50	40.5
O=Cc1c2[nH]c3ccccc3c2cc2[nH]c3ccccc3c12 [FICZ, 6-formylindolo[3,2-b]carbazole]	IC50	4.32

Next up:
What measured IC50 goes with c1ccc2c(c1)ccc1cc3c(ccc4ccccc43)cc12 [DBA, dibenz(a,h)anthracene] ? 14.6

---

# Target desc: mAhR (Mus musculus, UniProt P30561)
# Construct: made in house; host or cells: in vitro transcription/translation (rabbit reticulocyte lysate)
# Assay: biochemical
# Condition label: Table S1; wild-type mAhR; mean of nine independent reactions; read-out: AhR DNAB EC50
# Sequence (P30561 10-848): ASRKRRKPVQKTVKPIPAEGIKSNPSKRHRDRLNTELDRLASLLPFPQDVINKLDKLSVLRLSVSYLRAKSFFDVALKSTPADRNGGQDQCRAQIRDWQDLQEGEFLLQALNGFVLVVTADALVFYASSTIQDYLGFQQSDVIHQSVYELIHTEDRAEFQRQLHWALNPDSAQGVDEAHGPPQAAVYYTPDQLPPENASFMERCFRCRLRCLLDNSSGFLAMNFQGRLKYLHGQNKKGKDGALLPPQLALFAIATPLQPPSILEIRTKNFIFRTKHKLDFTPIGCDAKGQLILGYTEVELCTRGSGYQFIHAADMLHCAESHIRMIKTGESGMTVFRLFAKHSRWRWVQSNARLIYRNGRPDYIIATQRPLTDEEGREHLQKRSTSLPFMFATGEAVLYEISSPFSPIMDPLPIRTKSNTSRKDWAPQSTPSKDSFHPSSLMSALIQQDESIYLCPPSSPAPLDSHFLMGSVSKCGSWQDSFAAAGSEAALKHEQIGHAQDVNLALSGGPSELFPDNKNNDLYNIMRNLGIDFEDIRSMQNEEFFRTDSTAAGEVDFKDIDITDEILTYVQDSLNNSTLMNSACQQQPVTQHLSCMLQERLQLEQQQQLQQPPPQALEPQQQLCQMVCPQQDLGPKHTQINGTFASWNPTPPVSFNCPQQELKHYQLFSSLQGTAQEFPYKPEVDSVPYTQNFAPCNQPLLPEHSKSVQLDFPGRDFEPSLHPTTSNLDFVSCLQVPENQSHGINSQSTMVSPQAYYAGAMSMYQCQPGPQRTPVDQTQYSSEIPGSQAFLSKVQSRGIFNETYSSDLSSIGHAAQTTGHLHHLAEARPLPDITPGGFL
# Sequence (P53762 whole entry partner): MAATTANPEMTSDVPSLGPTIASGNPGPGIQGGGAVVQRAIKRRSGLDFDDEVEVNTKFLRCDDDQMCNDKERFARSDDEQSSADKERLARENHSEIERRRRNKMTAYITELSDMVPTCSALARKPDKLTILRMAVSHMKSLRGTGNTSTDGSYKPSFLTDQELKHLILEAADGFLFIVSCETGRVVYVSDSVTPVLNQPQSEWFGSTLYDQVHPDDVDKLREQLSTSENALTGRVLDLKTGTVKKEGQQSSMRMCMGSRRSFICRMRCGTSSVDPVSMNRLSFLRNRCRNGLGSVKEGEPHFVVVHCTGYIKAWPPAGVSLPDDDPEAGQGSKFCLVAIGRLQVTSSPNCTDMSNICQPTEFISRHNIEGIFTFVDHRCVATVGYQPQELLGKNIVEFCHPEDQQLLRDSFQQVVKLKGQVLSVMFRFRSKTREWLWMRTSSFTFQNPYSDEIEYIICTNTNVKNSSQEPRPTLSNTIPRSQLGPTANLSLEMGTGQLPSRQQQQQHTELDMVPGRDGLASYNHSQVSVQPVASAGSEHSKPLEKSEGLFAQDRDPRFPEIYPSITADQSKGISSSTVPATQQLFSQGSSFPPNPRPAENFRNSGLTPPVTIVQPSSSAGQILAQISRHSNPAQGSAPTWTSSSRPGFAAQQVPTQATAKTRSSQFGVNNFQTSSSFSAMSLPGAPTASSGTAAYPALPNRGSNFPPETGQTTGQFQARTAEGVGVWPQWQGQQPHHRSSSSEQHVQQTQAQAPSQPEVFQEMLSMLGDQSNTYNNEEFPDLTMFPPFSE
Experimental readout: pEC50
Keep in mind that pEC50 stands for -log10 of concentration in molar terms.

Compound	pEC50
Clc1cc2oc3cc(Cl)c(Cl)cc3c2cc1Cl [TCDF, 2,3,7,8-tetrachlorodibenzofuran]	8.34

What measured pEC50 goes with c1ccc2c(c1)cc1ccc3cccc4ccc2c1c34 [BaP, Benzo(a)pyrene] ? 7.41

What measured pEC50 goes with Clc1ccc(-c2cc(Cl)c(Cl)c(Cl)c2)cc1Cl [PCB126, 3,3′4,4′5-pentachlorobiphenyl] ? 8.19

What measured pEC50 goes with c1ccc2c(c1)ccc1cc3c(ccc4ccccc43)cc12 [DBA, dibenz(a,h)anthracene] ? 8.40

---

Listed next: entries and their corresponding log10(IC50).
# Target desc: mAhR (Mus musculus, UniProt P30561)
# Construct: made in house; host or cells: in vitro, Promega TNT Quick coupled transcription/translation rabbit reticulocyte lysate
# Assay: biochemical
# Format: binding
# Condition label: competition with [3H]TCDD, wild-type mAhR; values in text; read-out: relative AhR ligand binding affinity (IC50)
# Sequence (P30561 10-848): as the sequence (P30561 10-848) above
Heads up, the numbers here are log10 of IC50 in nM units.

Before answering, review these 6 worked examples.
Compound	Experimental readout	Val
c1ccc2c(c1)cc1ccc3cccc4ccc2c1c34	log10(IC50)	2.79
O=c1cc(-c2ccccc2)oc2ccc3ccccc3c12	log10(IC50)	0.86
Cc1ccc2cc3c(ccc4ccccc43)c3c2c1CC3	log10(IC50)	0.20
c1ccc2c(c1)ccc1cc3c(ccc4ccccc43)cc12	log10(IC50)	0.88
Clc1ccc(-c2cc(Cl)c(Cl)c(Cl)c2)cc1Cl	log10(IC50)	0.77
O=Cc1c2[nH]c3ccccc3c2cc2[nH]c3ccccc3c12 [FICZ, 6-formylindolo[3,2-b]carbazole]	log10(IC50)	0.00

Next up:
What measured log10(IC50) goes with Clc1cc2c(cc1Cl)Oc1cc(Cl)c(Cl)cc1O2 ? 0.00

---

# Target desc: mAhR (Mus musculus)
# Construct: made in house; host or cells: in vitro transcription/translation (rabbit reticulocyte lysate)
# Assay: biochemical
# Condition label: relative potency to stimulate AhR DNA binding in vitro (EC50), gel retardation, wild-type mAhR; values in text
Experimental readout: EC50 (nM)
# number only, unit nM dropped from output

What measured EC50 goes with Clc1cc2c(cc1Cl)Oc1cc(Cl)c(Cl)cc1O2 ? 7.5

---

# Target desc: H331A mutant AhR (Mus musculus, UniProt P30561, H331A)
# Assay: [3H]TCDD competitive ligand binding, H331A mutant AhR
# Condition label: Table S6; AhR mutant H331A
Experimental readout: pIC50
Keep in mind that pIC50 stands for -log10 of concentration in molar terms.

Form: Entry = Cc1ccc2cc3c(ccc4ccccc43)c3c2c1CC3 | System = H331A mutant AhR (Mus musculus, UniProt P30561, H331A) | pIC50 = ____ 9.85

---

# Target desc: mAhR (Mus musculus)
# Construct: made in house; host or cells: in vitro, Promega TNT Quick coupled transcription/translation rabbit reticulocyte lysate
# Assay: biochemical
# Format: binding
# Condition label: Table S1; wild-type mAhR; mean of nine independent reactions; read-out: AhR LB IC50
# Description: [^3H]TCDD specific binding to wild-type or mutant mAhRs synthesized in vitro using the Promega TNT Quick coupled transcription/translation rabbit reticulocyte lysate kit (Madison, WI) was carried out as previously described. [^3H]TCDD specific binding was determined by subtracting the amount of [^3H]TCDD bound to unprogrammed lysate (nonspecific binding) from the total amount of [^3H]TCDD binding to lysate containing in vitro expressed AhR. […]
Experimental readout: pIC50
Keep in mind that pIC50 stands for -log10 of concentration in molar terms.

What measured pIC50 goes with Clc1ccc(-c2cc(Cl)c(Cl)c(Cl)c2)cc1Cl [PCB126, 3,3′4,4′5-pentachlorobiphenyl] ? 8.23

What measured pIC50 goes with O=Cc1c2[nH]c3ccccc3c2cc2[nH]c3ccccc3c12 [FICZ, 6-formylindolo[3,2-b]carbazole] ? 8.99

What measured pIC50 goes with Clc1cc2oc3cc(Cl)c(Cl)cc3c2cc1Cl [TCDF, 2,3,7,8-tetrachlorodibenzofuran] ? 7.70

What measured pIC50 goes with Cc1ccc2cc3c(ccc4ccccc43)c3c2c1CC3 [3MC, 3-methylcholanthrene] ? 8.80

What measured pIC50 goes with O=c1cc(-c2ccccc2)oc2ccc3ccccc3c12 [BNF] ? 8.14

---

# Target desc: mAhR (Mus musculus)
# Construct: made in house; host or cells: in vitro transcription/translation (rabbit reticulocyte lysate)
# Assay: biochemical
# Condition label: AhR DNAB EC50, Table S1; wild-type mAhR; mean of nine independent reactions
Experimental readout: EC50 (nM)
# number only, unit nM dropped from output

What measured EC50 goes with Clc1cc2c(cc1Cl)Oc1cc(Cl)c(Cl)cc1O2 [TCDD, 2,3,7,8-tetrachlorodibenzo-p-dioxin] ? 7.53
